subject-of-test: Apelin receptor (Homo sapiens)
Sequence (whole entry): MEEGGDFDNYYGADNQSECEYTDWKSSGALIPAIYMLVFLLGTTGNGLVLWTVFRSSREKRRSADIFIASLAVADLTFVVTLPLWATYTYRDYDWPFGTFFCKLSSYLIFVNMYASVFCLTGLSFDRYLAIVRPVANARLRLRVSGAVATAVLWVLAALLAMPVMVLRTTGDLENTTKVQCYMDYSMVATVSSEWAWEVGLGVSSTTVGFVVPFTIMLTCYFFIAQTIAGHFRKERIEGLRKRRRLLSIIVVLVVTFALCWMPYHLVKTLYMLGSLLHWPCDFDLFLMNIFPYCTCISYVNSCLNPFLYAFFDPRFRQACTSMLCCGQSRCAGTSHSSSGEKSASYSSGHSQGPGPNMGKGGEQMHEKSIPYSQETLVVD
assay-notes: Agonist activity at human APJ expressed in HEK293 cell membrane assessed as maximal efficacy for recruitment of beta-arrestin2 to receptor by BRET-based beta-arrestin2 assay relative to control
Type: functional
particulars: filed as agonist
measurement-kind: Emax (%)

INSERT INTO measurements (mol, measurement_kind, units_symbol, observed_result) VALUES
  ('CCCC[C@H](NC(=O)[C@@H]1CCCN1C(=O)CNC(=O)[C@H](CCCCN)NC(=O)[C@@H]1C/C=C\C[C@H](N)C(=O)N[C@@H](CCCNC(=N)N)C(=O)N[C@@H](CC(C)C)C(=O)N[C@@H](CO)C(=O)N1)C(=O)O', 'Emax', '%', 69),
  ('CCCC[C@H](NC(=O)[C@@H]1CCCN1C(=O)CNC(=O)[C@H](CCCCN)NC(=O)[C@@H]1C/C=C\C[C@H](NC(=N)N)C(=O)N[C@@H](CCCNC(=N)N)C(=O)N[C@@H](CC(C)C)C(=O)N[C@@H](CO)C(=O)N1)C(=O)N1CCC[C@H]1C(=O)N[C@@H](Cc1ccccc1)C(=O)O', 'Emax', '%', 92),
  ('CCCC[C@H](NC(=O)[C@@H]1CCCN1C(=O)CNC(=O)[C@H](CCCCN)NC(=O)[C@@H]1CCNC/C=C/C[C@H](NC(=O)[C@H](CCCNC(=N)N)NC(=O)[C@@H]2CCC(=O)N2)C(=O)N[C@@H](CCCNC(=N)N)C(=O)N[C@@H](CC(C)C)C(=O)N[C@@H](CO)C(=O)N1)C(=O)N1CCC[C@H]1C(=O)N[C@@H](Cc1ccccc1)C(=O)O', 'Emax', '%', 86),
  ('CCCC[C@H](NC(=O)[C@@H]1CCCN1C(=O)CNC(=O)[C@H](CCCCN)NC(=O)[C@@H]1CCN(C)C/C=C/C[C@H](NC(=O)[C@H](CCCNC(=N)N)NC(=O)[C@@H]2CCC(=O)N2)C(=O)N[C@@H](CCCNC(=N)N)C(=O)N[C@@H](CC(C)C)C(=O)N[C@@H](CO)C(=O)N1)C(=O)N1CCC[C@H]1C(=O)N[C@@H](Cc1ccccc1)C(=O)O', 'Emax', '%', 90),
  ('CCCC[C@H](NC(=O)[C@@H]1CCCN1C(=O)CNC(=O)[C@H](CCCCN)NC(=O)[C@@H]1CCN(S(=O)(=O)c2ccccc2[N+](=O)[O-])C/C=C/C[C@H](NC(=O)[C@H](CCCNC(=N)N)NC(=O)[C@@H]2CCC(=O)N2)C(=O)N[C@@H](CCCNC(=N)N)C(=O)N[C@@H](CC(C)C)C(=O)N[C@@H](CO)C(=O)N1)C(=O)N1CCC[C@H]1C(=O)N[C@@H](Cc1ccccc1)C(=O)O', 'Emax', '%', 98),
  ('CC(C)C[C@@H]1NC(=O)[C@H](CCCNC(=N)N)NC(=O)[C@@H](N)C/C=C\C[C@@H](C(=O)N[C@@H](CCCCN)C(=O)NCC(=O)N2CCC[C@H]2C(=O)N[C@H](Cc2ccc(OCc3ccccc3)cc2)C(=O)O)NC(=O)[C@H](CO)NC1=O', 'Emax', '%', 78),
  ('CCCC[C@H](NC(=O)[C@@H]1CCCN1C(=O)CNC(=O)[C@H](CCCCN)NC(=O)[C@@H]1Cc2cncn2C/C=C/C[C@H](NC(=O)[C@H](CCCNC(=N)N)NC(=O)[C@@H]2CCC(=O)N2)C(=O)N[C@@H](CCCNC(=N)N)C(=O)N[C@@H](CC(C)C)C(=O)N[C@@H](CO)C(=O)N1)C(=O)N1CCC[C@H]1C(=O)N[C@@H](Cc1ccccc1)C(=O)O', 'Emax', '%', 115);
